tested on: IGFBP-1; assay: IGFBP-1 mRNA expression in HepG2 cells; format: cell-based, human; details: Experiment 3, basal (no insulin), HepG2 cells, 48 hours post-transfection
In the oligonucleotide strings, read from the 5' end, every base follows the letter of its sugar. An asterisk marks phosphorothioate; unmarked linkages are phosphodiester. Other units and linkages are bracketed, terminal groups are in braces. A string of capitals states the bases alone. e = 2'-O-(2-methoxyethyl) (MOE); [5mC] = 5-methylcytosine; d = 2'-deoxy (DNA)
Listed substances paired with reported IGFBP-1 (% UTC)
// return numeric value only (unit: % UTC, not printed)

These solved cases illustrate the format of a correct answer.
328384 (eT*e[5mC]*eA*e[5mC]*eG*dT*dG*dG*dA*dG*dA*dG*dG*dA*dG*eT*eT*eA*eA*eA; antisense) [compound 328384] :: 139
341813 (antisense AGACACGTGCACTGTAGA; all 2'-MOE, all phosphorothioate, methylation of C not given here) [compound 341813] :: 137
328677 (eT*e[5mC]*e[5mC]*eT*eG*dG*dA*dT*dG*dA*dT*dA*dT*d[5mC]*dT*eA*e[5mC]*e[5mC]*eT*e[5mC]; antisense) [compound 328677] :: 208
328759 (antisense eG*eA*eG*eG*eG*dA*dT*dT*dG*dT*dA*dT*dG*dA*dA*e[5mC]*eA*eT*e[5mC]*eT) [compound 328759] :: 356
186515 (antisense eA*eG*eG*eT*eA*dG*d[5mC]*dT*dT*dT*dG*dA*dT*dT*dA*eT*eG*eT*eA*eA) [compound 186515] :: 193

As a next step, examine the substance that follows.
So what IGFBP-1 (% UTC) did 340362 (antisense GACTGTTGAATCTCATGGCA; 5-10-5 gapmer, wing sugar and linkages not given here, further chemistry not given here) [compound 340362] get with IGFBP-1?
157

###

test system: HeLa cells; assay: Cell cycle assay in HeLa cells; format: cell-based, human; settings: HeLa cells, 150 nM oligomeric compound, 48 hours after treatment; relative to untreated control (UTC=100)
In the oligonucleotide strings, read from the 5' end, every base follows the letter of its sugar. An asterisk marks phosphorothioate; unmarked linkages are phosphodiester. Other units and linkages are bracketed, terminal groups are in braces. A string of capitals states the bases alone. e = 2'-O-(2-methoxyethyl) (MOE); [5mC] = 5-methylcytosine; d = 2'-deoxy (DNA)
attribute measured: % cells in cell cycle phase: subG1 (%)
Numbers only here, please. The scale is %.

Reference set, count: 2
327877 (antisense e[5mC]*eG*e[5mC]*e[5mC]*eA*eA*eT*eA*eT*eT*eT*eA*e[5mC]*eG*eT*eG*e[5mC]*eT*eG*e[5mC]*eT*eA) [compound 327877] :: 755
327922 (antisense eT*e[5mC]*eA*eG*eT*eT*eT*eT*eG*e[5mC]*eA*eT*eG*eG*eA*eT*eT*eT*eG*e[5mC]*eA*e[5mC]*eA) [compound 327922] :: 81

Continue with the substance presented below.
Could you share which % cells in cell cycle phase: subG1 value was measured for 328687 (eG*e[5mC]*eT*eT*e[5mC]*d[5mC]*d[5mC]*dA*dG*d[5mC]*dG*dG*d[5mC]*d[5mC]*dT*eA*eT*eA*eG*eT; antisense) [compound 328687] ?
1119
